experimentalSystem: T1, Secreted Protein, Acidic, Rich in Cysteines (SPARC) (UniProt P09486 18-303)
T1 construct: also called osteonectin; SPARC protein
T1 sequence (looked up): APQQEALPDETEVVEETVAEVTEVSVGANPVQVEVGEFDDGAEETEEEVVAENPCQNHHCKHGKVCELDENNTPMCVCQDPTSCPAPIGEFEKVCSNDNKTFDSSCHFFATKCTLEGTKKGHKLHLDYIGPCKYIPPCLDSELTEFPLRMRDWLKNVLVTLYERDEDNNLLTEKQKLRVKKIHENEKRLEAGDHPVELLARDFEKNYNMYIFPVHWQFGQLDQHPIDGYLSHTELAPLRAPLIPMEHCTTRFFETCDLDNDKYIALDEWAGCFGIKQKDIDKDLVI
experimentalProtocol: phage ELISA on SPARC-coated wells; OD column 1 of 3
From the text: Accordingly, a commercial peptide phage display library (12-mer peptides in M13) was screened for peptides which bind to SPARC. The target, SPARC is an acidic glycoprotein with a PI of 4.6. By immobilization on 96-wells plates with pH 9.6 coating buffer, Ph.D.-12 peptide library was screened four rounds to select peptide binders using phage display technology. Specifically, bound phages were eluted with an acidic eluting solution in the 1st round of screening. […]
metricName: OD
Could you respond with only the numeric value?

// worked examples, OD included
- binder: "IPFATAAYNAPG (also called clone 191)"
  metricName: "OD"
  recordedNumber: 0.564
- binder: "LSTHKLFHSHSQ (also called clone 180)"
  metricName: "OD"
  recordedNumber: 1.21
- binder: "TTHSELSGYVEL (also called clone 188)"
  metricName: "OD"
  recordedNumber: 0.716
- binder: "VTPLLKFRALSS (12-mer from the Ph.D.-12 phage library; The peptide was cloned into pFUSE-hIgG1-Fc2 and expressed as the PD 21-Fc fusion; also called peptide 21; PD 21-Fc) [PD 21]"
  metricName: "OD"
  recordedNumber: 0.45
- binder: "HYFSRTQTLSTL (also called clone 194)"
  metricName: "OD"
  recordedNumber: 0.494
- binder: "SAHTLAAWFAKP (also called clone 204)"
  metricName: "OD"
  recordedNumber: 0.8

Quick note, OD for KAYLDSIPITPR (also called clone 60) landed at 0.619

Value of OD reported for the binder AAAPLNLSMTFP (also called clone 182) is 0.756

The measured OD associated with QILGYPTNLGPF (also called clone 135) reads 0.626

For VPATRVSPTPYA (also called clone 133) the binder record lists OD as 0.545

Value of measured OD for the entry VSHPPRFPGWPQ (also called clone 59) : 0.737

From: patent US20120014954A1
